// reported viability, T/C for each item listed
test system: MDA-MB-231 multicell spheroids, viability; assay: Anticancer human tumor MDA-MB-231 cell line growth inhibition [PI3K]; conditions: second compound 0.01 µM; first compound 0.001 µM; hits give low values;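 note: spheroids exposed to agents for seven days before reading; percent of vehicle control luminescence with DMSO treated spheroids as 100%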
Give the value in % but do not write % after it.

[[record]]
molecule = "CC(C)n1nc(-c2ccc3oc(N)nc3c2)c2c(N)ncnc21 + COc1c(OCCCN2CCOCC2)ccc2c3n(c(=NC(=O)c4cnc(N)nc4)nc12)CCN3"
measurement_kind = "viability, T/C"
units_label = "%"
measured = 78.5

[[record]]
molecule = "CC(=O)c1c(C)c2cnc(Nc3ccc(N4CCNCC4)cn3)nc2n(C2CCCC2)c1=O + COc1c(OCCCN2CCOCC2)ccc2c3n(c(=NC(=O)c4cnc(N)nc4)nc12)CCN3"
measurement_kind = "viability, T/C"
units_label = "%"
measured = 79.9

[[record]]
molecule = "Cn1ncnc1[C@H]1c2n[nH]c(=O)c3cc(F)cc(c23)N[C@@H]1c1ccc(F)cc1 + COc1c(OCCCN2CCOCC2)ccc2c3n(c(=NC(=O)c4cnc(N)nc4)nc12)CCN3"
measurement_kind = "viability, T/C"
units_label = "%"
measured = 76.7

[[record]]
molecule = "CC(=O)c1c(C)c2cnc(Nc3ccc(N4CCNCC4)cn3)nc2n(C2CCCC2)c1=O + CC(Nc1ccc2c(c1)OCCn1cc(N3C(=O)OCC3C(F)F)nc1-2)C(N)=O"
measurement_kind = "viability, T/C"
units_label = "%"
measured = 92.6

[[record]]
molecule = "CC(C)n1nc(-c2ccc3oc(N)nc3c2)c2c(N)ncnc21 + CC(Nc1ccc2c(c1)OCCn1cc(N3C(=O)OCC3C(F)F)nc1-2)C(N)=O"
measurement_kind = "viability, T/C"
units_label = "%"
measured = 93.7


Lab book: viability, T/C of Cn1ncnc1[C@H]1c2n[nH]c(=O)c3cc(F)cc(c23)N[C@@H]1c1ccc(F)cc1 + CC(Nc1ccc2c(c1)OCCn1cc(N3C(=O)OCC3C(F)F)nc1-2)C(N)=O noted as 95
